Origin of measurements: patent US20070265451A1

- System: Erythroid bone marrow cells
- experiment: Bone marrow cell growth inhibition, erythroid
- Assay type: cell-based
measured parameter: IC50 (µg/mL)

# compound, target desc, measured parameter, assay result
records = [
    ("CC(C)N1C[C@@H](COS(=O)(=O)c2ccc([N+](=O)[O-])cc2)OC1=O", "Erythroid bone marrow cells", "IC50", 7),
]

P. CC(C)N1C[C@@H](CNSc2ccc([N+](=O)[O-])cc2)OC1=O
Q. CCN1C[C@@H](COS(=O)(=O)c2ccc([N+](=O)[O-])cc2)OC1=O
R. COc1ccc(C(=O)CN2C[C@@H](COS(=O)(=O)c3ccc(Cl)c4nonc34)OC2=O)cc1
Query: List from greatest to least IC50. Hello, could you send the labels back in the order asked? Thank you.
Response: P, R, Q

I. CN(C)C(=O)CN1C[C@@H](COS(=O)(=O)c2ccc([N+](=O)[O-])cc2)OC1=O
II. CCN1C[C@H](CNSc2ccc([N+](=O)[O-])cc2)OC1=O
Query: # return whichever of I and II has the smaller IC50 Lab log: write the label of the selected item as the result.
Response: II

P. CC(=O)NC[C@H]1CN(c2ccc(N3CCOCC3)c(F)c2)C(=O)O1 [ZYVOX, linezolid, reference compound]
Q. CN1C[C@@H](CNSc2ccc([N+](=O)[O-])cc2)OC1=O
Query: Kindly identify which of P and Q has the larger recorded IC50 value. Refer to your chosen item by its label in the answer.
Response: P
(P: 0.08 µg/mL, Q: 0.01 µg/mL)

====

- Tested on: Staphylococcus aureus NRS4 (992; HIP5836; New Jersey)
- experiment: Broth microdilution MIC, MR SA New Jersey
- Assay type: cell-based
- study conditions: Staphylococcus aureus, NRS4, methicillin resistant SA, strain New Jersey; read-out: MIC90-100 MR SA New Jersey
measured parameter: MIC90 (mg/L)

Here is how some compounds turned out for MIC90.
# compound, target desc, result units, assay result
measured = [
    ("CCN1C[C@H](CNSc2ccc([N+](=O)[O-])cc2)OC1=O [Compound 1715]", "Staphylococcus aureus NRS4 (992; HIP5836; New Jersey)", "mg/L", 3),
    ("O=C1O[C@H](CNSc2ccc([N+](=O)[O-])cc2)CN1c1ccc([N+](=O)[O-])cc1 [Compound 2278]", "Staphylococcus aureus NRS4 (992; HIP5836; New Jersey)", "mg/L", 4),
    ("CC(=O)NC[C@H]1CN(c2ccc(N3CCOCC3)c(F)c2)C(=O)O1 [ZYVOX, linezolid, reference compound]", "Staphylococcus aureus NRS4 (992; HIP5836; New Jersey)", "mg/L", 2),
    ("O=C1O[C@@H](COSc2ccc([N+](=O)[O-])cc2)CN1c1ccc([N+](=O)[O-])cc1 [Compound 1808]", "Staphylococcus aureus NRS4 (992; HIP5836; New Jersey)", "mg/L", 4),
    ("CC(C)N1C[C@@H](CNSc2ccc([N+](=O)[O-])cc2)OC1=O [Compound 1705]", "Staphylococcus aureus NRS4 (992; HIP5836; New Jersey)", "mg/L", 3),
    ("CC(C)N1C[C@@H](COS(=O)(=O)c2ccc([N+](=O)[O-])cc2)OC1=O [Compound 253]", "Staphylococcus aureus NRS4 (992; HIP5836; New Jersey)", "mg/L", 256),
    ("O=C(OC[C@H]1CN(c2ccc([N+](=O)[O-])cc2)C(=O)O1)Oc1ccc([N+](=O)[O-])cc1 [Compound 1809]", "Staphylococcus aureus NRS4 (992; HIP5836; New Jersey)", "mg/L", 3),
]

I. CN(C)C(=O)CN1C[C@@H](COS(=O)(=O)c2ccc([N+](=O)[O-])cc2)OC1=O [Compound 1021]
II. CN1C[C@@H](CNSc2ccc([N+](=O)[O-])cc2)OC1=O [Compound 1687]
Query: From the items above, decide which of I and II has the lower MIC90 reading. Returns: label corresponding to the selected item.
Response: II

====

- System: Myeloid bone marrow cells
- experiment: Bone marrow cell growth inhibition, myeloid
- Assay type: cell-based
measured parameter: IC50 (mg/L)

Check out these entries, answers already filled in.
# compound, target desc, assay result
measured = [
    ("CN(C)C(=O)CN1C[C@@H](COS(=O)(=O)c2ccc([N+](=O)[O-])cc2)OC1=O", "Myeloid bone marrow cells", 20),
    ("CC(C)N1C[C@@H](CNSc2ccc([N+](=O)[O-])cc2)OC1=O", "Myeloid bone marrow cells", 5),
    ("CC(C)N1C[C@@H](COS(=O)(=O)c2ccc([N+](=O)[O-])cc2)OC1=O", "Myeloid bone marrow cells", 30),
]

A. CCN1C[C@H](CNSc2ccc([N+](=O)[O-])cc2)OC1=O
B. CN1C[C@@H](CNSc2ccc([N+](=O)[O-])cc2)OC1=O
Query: Which value of IC50 is greater, the one for A or the one for B ? I would appreciate it if you answered with the label of your choice.
Response: B
(B: 20 mg/L, A: 5 mg/L)

====

- Test system: Staphylococcus aureus (ATCC 43300)
- experiment: Broth microdilution MIC, MR SA ATCC 43300
- Assay type: cell-based
- study conditions: ATCC43300, methicillin resistant SA, read-out: MIC90-100 MR SA ATCC 43300
- Method: See, NCCLS document M7-A5. Methods for Dilution Antimicrobial Susceptibility Tests for Bacteria That Grow Aerobically; Approved Standard-Fifth Edition. Volume 20, Number 2. January 2000, (ISBN 1-56238-394-9) and Lorian V. Antibiotics. […] Antimicrobial susceptibility screening was as follows. […] Solubility was assessed by visual observation. MB (medium broth solubility) was recorded if the solution appeared only slightly cloudy. […] Plates were grown as above and all observations were recorded. […]
measured parameter: MIC90 (µg/mL)

# compound, target desc, measured parameter, assay result
data = [
    ("CC(C)N1C[C@@H](CNSc2ccc([N+](=O)[O-])cc2)OC1=O", "Staphylococcus aureus (ATCC 43300)", "MIC90", 4),
    ("CCN1C[C@@H](COS(=O)(=O)c2ccc([N+](=O)[O-])cc2)OC1=O", "Staphylococcus aureus (ATCC 43300)", "MIC90", 128),
]

1. CCN1C[C@H](CNSc2ccc([N+](=O)[O-])cc2)OC1=O
2. CC(=O)NC[C@H]1CN(c2ccc(N3CCOCC3)c(F)c2)C(=O)O1 [ZYVOX, linezolid, reference compound]
3. CN(C)C(=O)CN1C[C@@H](COS(=O)(=O)c2ccc([N+](=O)[O-])cc2)OC1=O
Query: Please give the order of these compounds when sorted by MIC90, largest value leading. Response format: the labels, sorted as the prompt asks.
Response: 3, 1, 2

====

- Test system: Megakaryocytic bone marrow cells
- experiment: Bone marrow cell growth inhibition, megakaryocytic
- Format: cell-based
measured parameter: IC50 (µg/mL)

As a guide, the following entries are already answered.
# compound, result units, IC50
measured = [
    ("CN1C[C@@H](CNSc2ccc([N+](=O)[O-])cc2)OC1=O [Compound 1687]", "µg/mL", 6),
    ("CC(C)N1C[C@@H](CNSc2ccc([N+](=O)[O-])cc2)OC1=O [Compound 1705]", "µg/mL", 0.08),
    ("CC(C)N1C[C@@H](COS(=O)(=O)c2ccc([N+](=O)[O-])cc2)OC1=O [Compound 253]", "µg/mL", 10),
    ("CN(C)C(=O)CN1C[C@@H](COS(=O)(=O)c2ccc([N+](=O)[O-])cc2)OC1=O [Compound 1021]", "µg/mL", 0.9),
    ("CCN1C[C@H](CNSc2ccc([N+](=O)[O-])cc2)OC1=O [Compound 1715]", "µg/mL", 0.08),
]

1. CCN1C[C@@H](COS(=O)(=O)c2ccc([N+](=O)[O-])cc2)OC1=O [Compound 1192]
2. COc1ccc(C(=O)CN2C[C@@H](COS(=O)(=O)c3ccc(Cl)c4nonc34)OC2=O)cc1 [Compound 207]
Query: Compare the recorded IC50 of 1 and 2 ; state which is larger. Give the label of your selection.
Response: 2

====

- Test system: Staphylococcus aureus NRS102 (Reynolds)
- experiment: Broth microdilution MIC, Pen. R SA Reynolds
- Type: cell-based
- study conditions: strain Reynolds, read-out: MIC90-100 Pen. R SA Reynolds
- Experimental: See, NCCLS document M7-A5. Methods for Dilution Antimicrobial Susceptibility Tests for Bacteria That Grow Aerobically; Approved Standard-Fifth Edition. Volume 20, Number 2. January 2000, (ISBN 1-56238-394-9) and Lorian V. Antibiotics. […] Antimicrobial susceptibility screening was as follows. […] Solubility was assessed by visual observation. MB (medium broth solubility) was recorded if the solution appeared only slightly cloudy. […] Plates were grown as above and all observations were recorded. […]
measured parameter: MIC90 (mg/L)

1. CC(=O)NC[C@H]1CN(c2ccc(N3CCOCC3)c(F)c2)C(=O)O1 [ZYVOX, linezolid, reference compound]
2. CCN1C[C@H](CNSc2ccc([N+](=O)[O-])cc2)OC1=O
Query: Higher MIC90: 1 or 2 ? Refer to your chosen item by its label in the answer.
Response: 2
